# experimental_system: α2-GABAA receptor (Homo sapiens, UniProt P18507+P47869)
# Construct: expressed in transfected cells
# assay_overview: Radioactive ligand (3H-flunitrazepam) competitive binding assay, BZD site of membrane proteins of α2-GABAAR-HEK293 cells
# details: competition with 1 nM 3H-flunitrazepam; HEK293 membranes expressing α2, β3, γ2 subunits; Ki calculated from IC50; read-out: α2 Ki
Catalogue of Ki values
Please respond with the number in nM and leave the unit unwritten.

Read off the recorded Ki for CCCNC(=O)c1nc2c(-c3cccc(C#N)c3F)cccn2c1N [Example 57]
3.32

Read off the recorded Ki for COc1cccc(F)c1-c1cccn2c(N)c(C(=O)NCC3CC3)nc12 [Example 6]
24

Read off the recorded Ki for CCCCNC(=O)c1nc2c(-c3c(F)cccc3OC)cccn2c1N [Example 26]
17.8

Read off the recorded Ki for CCCNC(=O)c1nc2c(-c3cccc(OC)c3F)cccn2c1N [Example 63]
10.2
